For each record, write down the corresponding Percent Effect.
System: Wolbachia pipientis
Procedure details: Anti-Wolbachia Cell-Based Screen
Format: functional
Parameters: scale not given: in the data most compounds retested in dose-response had high values
Condition set: 5 µM
Among all 48,000 compounds or so, about 13,000 (27%) showed an effect of 50% or more. This is one part of the list.
Respond with the bare value in %.

Request the reported Percent Effect associated with Cc1nn(C)c2nc(N(C)CCN(C)C)sc12
-12.15

Record request: Percent Effect value, item CCN1Cc2nc(OC)c(CNC(=O)C3CCCN(C)C3)cc2C1=O (configuration not stated)
93.23

Please report the recorded Percent Effect for O=S(=O)(N1CCOCC1)N1CCCCC1CCc1ccc(O)cc1 (configuration not stated) .
2.652

Requested read-out: Percent Effect. Entry: CCCc1nc(C)c(C(=O)Nc2cccc(C)n2)s1
125.8

State the recorded Percent Effect for this entry: Cc1ccsc1CN(C)c1cc(N2CCOCC2)ncn1
-30.66

Given CCN1Cc2nc(OC)c(CNC(=O)CCC3CCCC3)cc2C1=O , state its recorded Percent Effect.
102.4

Requested field: Percent Effect. Item: O=C(C1CCOCC1)N1CC[C@H]2[C@H]1CCN2c1nncs1.O=C(O)C(F)(F)F
9.105
